- Tested on: M14 melanoma
- Assay Overview: NCI-60 one-dose screen, 48 h (100 = growth as untreated, 0 = no growth, -100 = all killed)
- Measurement Parameters: 10 µM unless noted
About 83,000 compounds went through this panel and 20% of them were active in at least one assay; those are over-represented in the sample as a whole. Active and inactive are the calls of the source. How the source made its calls: active means growth percent below 10; inactive means the rest.
Recorded Metric: growth

What growth value was documented for this molecule, CO[C@H](C(=O)N[C@@H](CCCCNC(=O)OCc1ccccc1)C(=O)OC(C)(C)C)[C@@H]1Cc2cc3cc(OC4CC(OC5CC(O)C(O)C(C)O5)C(O)C(C)O4)c(C)c(O)c3c(O)c2C(=O)[C@H]1OC1CC(OC2CC(OC3CC(C)(O)C(O)C(C)O3)C(O)C(C)O2)C(O)C(C)O1 (stereo partly drawn) ?
-69.8% (active)

# lookup: growth of CCN1CCN(Cc2ccc(-c3cc4c(N[C@H](C)c5ccccc5)ncnc4[nH]3)cc2)CC1
7.83% (active)

# get_value(readout='growth', item= c1ccc2c(c1)CCN(NCCN1CCCC1)C2 )
93% (inactive)

Entry under review: CO/C=C/C(=O)c1cc2cnc3c(=N)cc(NC(=O)C(C)C)c([nH]1)c23 . Reported growth?
-61.3% (active)

I would be grateful if you could share the reported growth for C/C(=C(/c1ccc(Cl)cc1)c1ccc(OCCN2CCCCC2)cc1)c1ccccc1 .
67.1% (inactive)

Given the entry CN[C@@H]1C[C@H]2O[C@@](C)([C@@H]1OC)n1c3ccccc3c3c4c(c5c6ccccc6n2c5c31)C(=O)N[C@H]4O , report its measured growth.
-56.6% (active)

Find the recorded growth belonging to O=C(NOCCO)c1cc(CN2OCCCC2=O)c(F)c(F)c1Nc1ccc(I)cc1F and report it.
9.12% (active)

Given the entry Cc1cnc(Nc2ccc(OCCN3CCCC3)cc2)nc1Nc1cccc(S(=O)(=O)NC(C)(C)C)c1 , report its measured growth.
-48% (active)

---

- Tested on: SK-MEL-5 melanoma
- Assay Overview: NCI-60 one-dose screen, 48 h
- Measurement Parameters: 10 µM unless noted
The panel holds about 83,000 compounds, 20% with a hit somewhere; the sample as a whole holds those more often. The source made the active and inactive calls. Rule for the calls: active = growth percent below 10; inactive = the rest.
Your answer must be one of the following: active, inactive

Recorded call for CC(N)C(Cc1ccc(Cl)cc1)c1ccc(Cl)cc1 (centres undefined) ?
inactive

I would be grateful if you could indicate the recorded call for CCN(CC)CCNC(=O)c1c(C)[nH]c(/C=C2\C(=O)Nc3ccc(F)cc32)c1C .
active

Record lookup: outcome of this test for C=CCCCC(=O)CCC(=O)OCC1O[C@@H](O[C@@H]2C(O)[C@@H](OC(C)=O)C(C)O[C@H]2O[C@H](CC=C)CCCCC)C(O)[C@@H](OC(=O)/C(C)=C/C)[C@@H]1OC(=O)/C=C/c1ccccc1 (some centres undefined) ?
active

Give the logged outcome of this assay for the following compound: C=CCN(/C=C1/C(=O)O[C@H](COC)[C@@]2(C)C1=C(O)C(=O)C1=C2[C@H](OC(C)=O)C[C@]2(C)C(=O)CC[C@@H]12)CC=C
active

Call for entry COc1cnc2c(c1)C(=O)c1c-2n(CCCNC2=NCCS2)c(=O)c2cc(Cl)ccc12 :
inactive

Hello, I am checking results. What call was entered for CNC(=O)c1cc(Oc2ccc3nc(NC(=O)Nc4ccc(Cl)c(C(F)(F)F)c4)sc3c2)ccn1 ?
inactive

Returns: the outcome recorded for CCN(CCN(C)C)C(=O)CNCc1cc(C(N)=O)ccn1 in this assay.
inactive

// outcome(item) with item = CCc1ccc(/C=C/c2ccc(O)c3ncccc23)[n+](C)c1
inactive

Answer briefly: the call reported for N#CCNC(=O)c1ccc(-c2ccnc(Nc3ccc(N4CCOCC4)cc3)n2)cc1 in this assay.
inactive

Reference source for all entries: PubChem BioAssay (NCI)
